test_description: Pharmacokinetic study of I-11 in female BALB/c mice (Example 4)
Assay type: in vivo, Balb/c mouse
measurement_setup: female, BALB/c, mouse, plasma, po, 100 mg/kg, PO 100 mg/kg, 4 hr, read-out: Plasma concentration Mean
attribute_measured: concentration at 4 hr (ng/mL)
Give bare numbers, in ng/mL.

*Q* Quick one: concentration at 4 hr for "CC(C)Cc1sc(Nc2ncc(-c3cccs3)cc2C(=O)O)nc1C(C)(C)C" ?
*A* 8190

###

test_description: Pharmacokinetic study of I-11 in female BALB/c mice (Example 4)
Assay type: in vivo, Balb/c mouse
measurement_setup: mouse, plasma, PO 100 mg/kg
attribute_measured: AUC(0-t) (ng·h/mL)
Answers are plain numbers, in ng·h/mL.

*Q* Quick one: AUC(0-t) for "CC(C)Cc1sc(Nc2ncc(-c3cccs3)cc2C(=O)O)nc1C(C)(C)C" ?
*A* 63100
